- Test system: RAW-Dual (murine macrophage reporter line)
- assay name: IRF reporter (Lucia luciferase) activity fold change vs agonist alone; higher = enhanced IRF activity
- condition description: modulator concentration 10 µM; agonist: MPLA […]
Lab note: anything with IRF reporter at or over 1 counts as Fulfilled; the rest go in Not fulfilled.

Known results for compounds:
compound	test target	assigned label
COC(=O)C1=CN(CC2CCCO2)C=C(C(=O)OC)C1c1cccc(OC)c1 (centres undefined)	RAW-Dual (murine macrophage reporter line)	Not fulfilled
COc1ccc(C)c2sc(NC(=O)c3ccco3)nc12	RAW-Dual (murine macrophage reporter line)	Not fulfilled
Cc1cc(Cl)ccc1NC(=O)c1ccc(CN2CCN(c3ccccc3)CC2)cc1	RAW-Dual (murine macrophage reporter line)	Fulfilled
O=c1cc(O)c(Cl)c[nH]1	RAW-Dual (murine macrophage reporter line)	Not fulfilled
COc1ccc2c(c1)c(CC(=O)OCC(=O)O)c(C)n2C(=O)c1ccc(Cl)cc1	RAW-Dual (murine macrophage reporter line)	Fulfilled

Input line: Given `COc1ccc([C@H]2CNC(=O)C2)cc1OC1CCCC1` , state whether its IRF reporter is at least 1.
Output line: Fulfilled

Input line: Param item: `O=C(O)C=Cc1cccc(NS(=O)(=O)C=Cc2ccccc2)c1`
Output line: Fulfilled

Input line: How about COC(=O)C1=CN(CC2CCCO2)C=C(C(=O)OC)C1c1cccc(Cl)c1 (centres undefined) ?
Output line: Fulfilled

Input line: Then `CC(=O)Nc1ccc(NC(=S)NC(=O)C=Cc2ccc(Cl)cc2Cl)cc1` ?
Output line: Fulfilled

Input line: Also `COc1ccc(S(=O)(=O)NCc2ccnc(N3CCOCC3)n2)cc1Cl` , if possible.
Output line: Fulfilled

Input line: Now the compound `COc1ccc(CNCc2cccc3ccccc23)cc1OC`
Output line: Fulfilled

Input line: Same thing, different compound: CC(Oc1ccccc1)C(=O)NC1CC(C)(C)NC(C)(C)C1 (centres undefined)
Output line: Fulfilled

Input line: Proceed to `O=C(Oc1ccc(O)c(CO)c1)c1ccccc1`
Output line: Not fulfilled

Every entry's value here was drawn from the supplement of paper PMC10646978.
